Target: UniProt P08684
Sequence (P08684 whole entry): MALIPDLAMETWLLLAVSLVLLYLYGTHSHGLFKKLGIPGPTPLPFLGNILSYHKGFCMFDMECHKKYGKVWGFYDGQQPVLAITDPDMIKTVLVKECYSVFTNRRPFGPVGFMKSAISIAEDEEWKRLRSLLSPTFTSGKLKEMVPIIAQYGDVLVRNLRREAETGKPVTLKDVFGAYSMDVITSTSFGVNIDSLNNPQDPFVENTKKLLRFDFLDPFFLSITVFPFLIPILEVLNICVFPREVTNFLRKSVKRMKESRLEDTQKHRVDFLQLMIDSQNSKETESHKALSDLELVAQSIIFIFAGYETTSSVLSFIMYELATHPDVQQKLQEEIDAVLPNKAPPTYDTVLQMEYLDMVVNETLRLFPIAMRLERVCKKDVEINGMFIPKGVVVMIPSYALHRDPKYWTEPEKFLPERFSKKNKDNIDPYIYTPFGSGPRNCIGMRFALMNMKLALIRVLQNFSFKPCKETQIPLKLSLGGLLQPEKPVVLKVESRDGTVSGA
Test: Determination of CYP3A4 inhibitory activity (human liver microsome, Luciferin-IPA)
Details: CYP3A4 IC50 (nM), 37° C. 11 minutes
Reported Metric: IC50

| Compound | System | IC50 |
| --- | --- | --- |
| CCN(CCc1ccc(NC(=O)c2cc(OC)c(OC)cc2NC(=O)c2cc(=O)c3ccccc3o2)cc1)Cc1cccc(-c2ccco2)c1 [Compound 141] | UniProt P08684 | > 1000 nM |
| COc1cc(NC(=O)c2cc(=O)c3ccccc3o2)c(C(=O)Nc2ccc(CCN(Cc3ccc4c(cnn4C)c3)Cc3cncn3C)cc2)cc1OC [Compound 21] | UniProt P08684 | < 100 nM |
| COc1cc(NC(=O)c2cc(=O)c3ccccc3o2)c(C(=O)Nc2ccc(CCN(C)Cc3cnc(-n4ccnc4)nc3)cc2)cc1OC [Compound 126] | UniProt P08684 | 500 to 1000 nM |
| COc1cc(NC(=O)c2cnc3c(O)cccc3c2)c(C(=O)Nc2ccc(CCN(C)Cc3ccc4c(cnn4C)c3)cc2)cc1OC [Compound 136] | UniProt P08684 | > 1000 nM |
| COc1cc(NC(=O)c2cc(=O)c3cc(C)ccc3o2)c(C(=O)Nc2ccc(CCN(Cc3cccnc3)Cc3ccc4c(cnn4C)c3)cc2)cc1OC [Compound 38] | UniProt P08684 | 100 to 250 nM |
| COc1cc2c(cc1OC)CN(CCc1ccc(NC(=O)c3ccc(C(=O)O)cc3NC(=O)c3cc(=O)c4ccccc4o3)cc1)CC2 [Compound 261] | UniProt P08684 | > 1000 nM |

QUERY: Any idea what IC50 was measured for COc1ccc(CN(CCc2ccc(NC(=O)c3cc(OC)c(OC)cc3NC(=O)c3cc(=O)c4ccccc4o3)cc2)Cc2ccc(-n3ccnc3)cc2)cc1OC [Compound 28] ?
RESULT: 100 to 250 nM

QUERY: Any idea what IC50 was measured for COc1cc(NC(=O)c2cc(=O)c3ccccc3o2)c(C(=O)Nc2ccc(CCN(Cc3cccnc3)Cc3cccc(-c4nc(C)no4)c3)cc2)cc1OC [Compound 203] ?
RESULT: 250 to 500 nM

QUERY: Any idea what IC50 was measured for COc1cc(NC(=O)c2cnc3ccccc3n2)c(C(=O)Nc2ccc(CCN(Cc3ccc4c(c3)n(C)c(=O)n4C)Cc3ccc4c(c3)n(C)c(=O)n4C)cc2)cc1OC [Compound 169] ?
RESULT: > 1000 nM

QUERY: Any idea what IC50 was measured for COCCOc1cncc(CN(CCc2ccc(NC(=O)c3cc(OC)c(OC)cc3NC(=O)c3cnc4ccccc4n3)cc2)Cc2ccc3c(cnn3C)c2)c1 [Compound 62] ?
RESULT: 500 to 1000 nM

QUERY: Any idea what IC50 was measured for COc1cc2c(cc1OC)CN(CCc1ccc(NC(=O)c3ccc(C(=O)OCCCn4ccnc4)cc3NC(=O)c3cc(=O)c4ccccc4o3)cc1)CC2 [Compound 262] ?
RESULT: < 100 nM

QUERY: Any idea what IC50 was measured for COc1cc(NC(=O)c2cc(=O)c3ccccc3o2)c(C(=O)Nc2ccc(CCN(Cc3cccnc3)Cc3ccc4cnn(C)c4c3)cc2)cc1OC [Compound 42] ?
RESULT: 250 to 500 nM

QUERY: Any idea what IC50 was measured for CCOc1cc(C(=O)Nc2ccc(CCN(C)Cc3ccc(-n4ccnc4)cc3)cc2)c(NC(=O)c2cc(=O)c3ccccc3o2)cc1OC [Compound 108] ?
RESULT: 250 to 500 nM

QUERY: Any idea what IC50 was measured for COc1cncc(CN(Cc2ccc(CNC(=O)c3cc(OC)c(OC)cc3NC(=O)c3cc(=O)c4ccccc4o3)cc2)Cc2ccc3c(cnn3C)c2)c1 [Compound 235] ?
RESULT: 100 to 250 nM

QUERY: Any idea what IC50 was measured for CCc1cn(-c2cccc(CN(C)CCc3ccc(NC(=O)c4cc(OC)c(OC)cc4NC(=O)c4cc(=O)c5ccccc5o4)cc3)c2)cn1 [Compound 105] ?
RESULT: 100 to 250 nM
